FYI, the data here is from PubChem BioAssay AID1259407.

test system: CCRIS mutagenicity, Ames/micronucleus/aberration tests; test: CCRIS mutagenicity studies; conditions: Test System: AMES SALMONELLA TYPHIMURIUM; Strain/Indicator: TA98; Metabolic Activation: NONE; Method: PREINCUBATION
Calls of active or inactive are those of the source. No rule for the calls is given here.
Hi there, use one of these labels in your reply, thanks! active, inactive

Some solved entries appear below for comparison.
>  <smiles.representation>
COC(=O)CC(C)=O

>  <class.label>
inactive

$$$$
>  <smiles.representation>
O=Cc1ccccc1[N+](=O)[O-]

>  <class.label>
inactive

$$$$
>  <smiles.representation>
CCCCCCCCCCCCCO

>  <class.label>
inactive

$$$$

Please share the test call associated with Nc1cc2c3ccccc3ccc2c2ccccc12 .
active

Please share the test call associated with NN=C(N)N .
inactive

Please share the test call associated with CCN(Cc1cccc(S(=O)(=O)O)c1)c1ccc(C(=C2C=CC(=[N+](CC)Cc3cccc(S(=O)(=O)O)c3)C=C2)c2ccccc2S(=O)(=O)[O-])cc1 .
inactive

Please share the test call associated with CCc1cccc(CC)c1N=O .
active
